condition_description: in tetrachloromethane, 327.85 K
parameter_measured: solubility (mole fraction)

* C[C@@H]1CC[C@@]2(OC1)O[C@H]1C[C@H]3[C@@H]4CC=C5C[C@@H](O)CC[C@]5(C)[C@H]4CC[C@]3(C)[C@H]1[C@@H]2C | 0.0105

* * *

condition_description: in tetrachloromethane, 306.95 K
parameter_measured: solubility (mole fraction)

- C[C@@H]1CC[C@@]2(OC1)O[C@H]1C[C@H]3[C@@H]4CC=C5C[C@@H](O)CC[C@]5(C)[C@H]4CC[C@]3(C)[C@H]1[C@@H]2C: 0.00487

* * *

condition_description: in tetrachloromethane, 317.95 K
parameter_measured: solubility (mole fraction)

- C[C@@H]1CC[C@@]2(OC1)O[C@H]1C[C@H]3[C@@H]4CC=C5C[C@@H](O)CC[C@]5(C)[C@H]4CC[C@]3(C)[C@H]1[C@@H]2C: 0.00718
